The origin of these recorded values is ChEMBL document CHEMBL4251581.

- Test system: Mycobacterium tuberculosis
- method notes: Antimycobacterial activity against Mycobacterium tuberculosis H37Rv
- Format: functional, organism-based
parameter: MIC (µM)
Please give a number only; it is taken to be in µM.

Known results for compounds:
C=C(C)[C@@H]1CC[C@]2(CO)CC[C@]3(C)[C@H](CC[C@@H]4[C@@]5(C)CCCNC(C)(C)[C@@H]5CC[C@]43C)[C@@H]12	10
CC1(C)CC[C@]2(COC(=O)/C=C/c3ccccc3)CC[C@]3(C)C(=CC[C@@H]4[C@@]5(C)CCCNC(C)(C)[C@@H]5CC[C@]43C)[C@H]2C1	12

# input Read off the recorded MIC for `CO[C@H]1/C=C/O[C@@]2(C)Oc3c(C)c(O)c4c(O)c(c(/C=N/N5CCN(C)CC5)c(O)c4c3C2=O)NC(=O)/C(C)=C\C=C\[C@H](C)[C@H](O)[C@@H](C)[C@@H](O)[C@@H](C)[C@H](OC(C)=O)[C@@H]1C`
# output 0.04

# input Report MIC, nothing else, for this compound: `CC1(C)CC[C@@]23CC[C@]4(C)C(OC2)(C(=O)C[C@@H]2[C@@]5(C)CCCNC(C)(C)[C@@H]5CC[C@]24C)[C@H]3C1`
# output 29
